Target: rat TAAR1 (Rattus norvegicus (Rat), UniProt Q923Y9)
Sequence (Q923Y9 whole entry): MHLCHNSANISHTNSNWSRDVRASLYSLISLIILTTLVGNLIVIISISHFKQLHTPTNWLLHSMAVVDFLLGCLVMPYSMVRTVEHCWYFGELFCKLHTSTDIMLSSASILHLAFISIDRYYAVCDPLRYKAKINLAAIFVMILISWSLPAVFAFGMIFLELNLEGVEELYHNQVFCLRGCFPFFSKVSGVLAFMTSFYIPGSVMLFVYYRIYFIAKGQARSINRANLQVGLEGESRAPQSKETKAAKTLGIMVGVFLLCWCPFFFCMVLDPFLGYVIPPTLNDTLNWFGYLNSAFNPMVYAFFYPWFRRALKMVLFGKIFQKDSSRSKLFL
Test: Radioligand binding assay on rat TAAR1
Conditions: rat TAAR1 (second value of the cell), HEK-293 membranes; read-out: Ki (μM) mouse/rat
metric: log10 Ki (log10 of the value in µM)
Values are log10 of Ki in µM.

Below, 2 compounds whose answers are already recorded.
Fill in: log10 Ki of Cc1cc([C@@H]2CNCCO2)ccc1Nc1ncc(C(F)(F)F)cn1 is ___
-0.80

Find the recorded log10 Ki belonging to Cc1cc(Br)cnc1Nc1ccc([C@H]2CNCCO2)cc1 and report it.
-0.68

***
State the recorded log10 Ki for this entry: CCCc1cnc(Nc2ccc([C@H]3CNCCO3)cc2)nc1
-1.61

Dear colleague, I am looking for the recorded log10 Ki of the following compound: Fc1cc([C@H]2CNCCO2)ccc1Nc1ncc(OCC(F)(F)F)cn1
-2.17
